test system: A. fum.; assay: In vitro antifungal MIC, NCCLS M38P broth method in RPMI 1640/MOPS pH 7; type: cell-based, Aspergillus fumigatus; details: A. fumigatus strain 1008; RPMI 1640, MOPS pH 7
// reported MIC (A. fum.) 1008 for each item listed

Query: Return MIC (A. fum.) 1008 for the following compound: CCCCCCCCNC(=S)N(NC(=O)OC(C)(C)C)[C@H](C)[C@](O)(Cn1cncn1)c1ccc(F)cc1F
Result: >16 µg/mL

Query: Given the compound C[C@@H](N(NC(=O)OC(C)(C)C)C(=S)Nc1cccc2ccccc12)[C@](O)(Cn1cncn1)c1ccc(F)cc1F , write its reported MIC (A. fum.) 1008.
Result: >16 µg/mL

Query: Kindly indicate its recorded MIC (A. fum.) 1008. Item: C[C@@H](n1ncn(Cc2ccco2)c1=S)[C@](O)(Cn1cncn1)c1ccc(F)cc1F
Result: 8 µg/mL

Query: Give the reported MIC (A. fum.) 1008 for this compound. C[C@@H](N(N)C(=S)NCc1ccco1)[C@](O)(Cn1cncn1)c1ccc(F)cc1F
Result: 4 µg/mL

Query: Look up and state reported MIC (A. fum.) 1008 for C[C@@H](N(N)C(=S)NCc1cccs1)[C@](O)(Cn1cncn1)c1ccc(F)cc1F
Result: 4 µg/mL
